- protocol_summary: RP, Thermo Scientific Hypersil GOLD, 5 × 2.1 mm, 1.9 µm, 45 °C, 0.25 mL/min, estimated dead time 0.044 min; A: water + 0.1% formic acid, pH 3; B: 50% acetonitrile + 50% isopropanol + 0.1% formic acid, pH 3; gradient (min/%B) 0/5 0.5/5 5/50 5.5/95 6.5/95 10/5
- settings: stereoisomer not certain
For each entry below, report its LC retention time value.
Write the numeric value and append its unit.

Entry CCCCCCCCC=CCCCCCCCC(=O)OCC(O)COP(=O)([O-])OCC[N+](C)(C)C (centres undefined) : reported LC retention time = ?
6.93 min

Entry CCCCCCCCCCCCCC(=O)OCC(O)COP(=O)([O-])OCC[N+](C)(C)C (centres undefined) : reported LC retention time = ?
6.62 min

Entry CCCCCC=CCC=CCC=CCC=CCC=CCCC(=O)OC(COC(=O)CCCCCCCCCCCCCCC)COP(=O)([O-])OCC[N+](C)(C)C (centres undefined) : reported LC retention time = ?
7.41 min

Entry CCCCCC=CCC=CCC=CCC=CCCCC(=O)OC(COC(=O)CCCCCCCCCCCCCCC)COP(=O)(O)OCC[N+](C)(C)C (centres undefined) : reported LC retention time = ?
7.43 min

Entry CCCCCC=CCC=CCC=CCC=CCCCC(=O)OCC(O)COP(=O)([O-])OCC[N+](C)(C)C (centres undefined) : reported LC retention time = ?
6.69 min

Entry CCCCCCC=CCCCCCCCC(=O)OCC(O)COP(=O)([O-])OCC[N+](C)(C)C (centres undefined) : reported LC retention time = ?
6.67 min

Entry CCC=CCC=CCC=CCC=CCC=CCCCC(=O)OCC(O)COP(=O)([O-])OCC[N+](C)(C)C (centres undefined) : reported LC retention time = ?
6.55 min

Entry CCCCCCCCC=CCCCCCCCC(=O)OCC(O)COP(=O)(O)OCCN (centres undefined) : reported LC retention time = ?
6.92 min

Entry CCC=CCC=CCC=CCCCCCCCC(=O)OCC(O)COP(=O)([O-])OCC[N+](C)(C)C (centres undefined) : reported LC retention time = ?
6.59 min
